Please go through the items and note down their LD50.
- Test system: human monocytic leukemia THP-1 cells
- settings: 24 h

Request: Fill in LD50 for record COc1cccc(NC(=O)c2cc3ccccc3cc2O)c1 [Compound 3b]
Response: >30 µM

Request: Fill in LD50 for record CCCCOc1ccc(NC(=O)c2cc3ccccc3cc2O)cc1 [Compound 6c]
Response: >30 µM

Request: Fill in LD50 for record CCCCOc1cccc(NC(=O)c2cc3ccccc3cc2O)c1 [Compound 6b]
Response: 16.5 ± 0.8 µM

* * *

- System: clinical isolate of M. avium subsp. paratuberculosis CIT03
- assay-remarks: In vitro antimycobacterial evaluation, alamarBlue (MIC)
- Type: cell-based
- settings: Mycobacterium avium, 264 h; M. avium subsp. paratuberculosis CIT03; 11 days, 37 °C, alamarBlue; MIC/IC90; read-out: MIC MAP
Please go through the items and note down their log10(MIC).
Remember, log10 of MIC, in µM.

Request: Fill in log10(MIC) for record COc1ccccc1NC(=O)c1cc2ccccc2cc1O [Compound 3a]
Response: 2.31

Request: Fill in log10(MIC) for record CCCCOc1ccccc1NC(=O)c1cc2ccccc2cc1O [Compound 6a]
Response: 2.87

Request: Fill in log10(MIC) for record CCC(C)Oc1cccc(NC(=O)c2cc3ccccc3cc2O)c1 (centres unmarked) [Compound 8b]
Response: 2.87

Request: Fill in log10(MIC) for record CCC(C)Oc1ccccc1NC(=O)c1cc2ccccc2cc1O (centres unmarked) [Compound 8a]
Response: 1.95

Request: Fill in log10(MIC) for record CCC(C)Oc1ccc(NC(=O)c2cc3ccccc3cc2O)cc1 (centres unmarked) [Compound 8c]
Response: 2.87

Request: Fill in log10(MIC) for record CC(C)Oc1ccccc1NC(=O)c1cc2ccccc2cc1O [Compound 7a]
Response: 2.89

Request: Fill in log10(MIC) for record CO[C@H]1/C=C/O[C@@]2(C)Oc3c(C)c(O)c4c(O)c(c(/C=N/N5CCN(C)CC5)c(O)c4c3C2=O)NC(=O)/C(C)=C\C=C\[C@H](C)[C@H](O)[C@@H](C)[C@@H](O)[C@@H](C)[C@H](OC(C)=O)[C@@H]1C [RIF, rifampicin, reference compound]
Response: 2.04

Request: Fill in log10(MIC) for record COc1cccc(NC(=O)c2cc3ccccc3cc2O)c1 [Compound 3b]
Response: 2.63

Request: Fill in log10(MIC) for record CC(C)Oc1ccc(NC(=O)c2cc3ccccc3cc2O)cc1 [Compound 7c]
Response: 2.89

Request: Fill in log10(MIC) for record O=C(Nc1ccccc1)c1cc2ccccc2cc1O [Compound 2]
Response: 2.98

Request: Fill in log10(MIC) for record CC(C)Oc1cccc(NC(=O)c2cc3ccccc3cc2O)c1 [Compound 7b]
Response: 2.89

* * *

Please go through the items and note down their MIC.
- Test system: clinical isolate of M. avium subsp. paratuberculosis CIT03
- assay-remarks: In vitro antimycobacterial evaluation, alamarBlue (MIC)
- Format: cell-based
- settings: Mycobacterium avium, 264 h, read-out: MIC MAP
Response body: numeric value in µM, unit text excluded.

Request: Fill in MIC for record CCOc1cccc(NC(=O)c2cc3ccccc3cc2O)c1 [Compound 4b]
Response: 813

Request: Fill in MIC for record CCCOc1cccc(NC(=O)c2cc3ccccc3cc2O)c1 [Compound 5b]
Response: 778

Request: Fill in MIC for record CCCCOc1ccc(NC(=O)c2cc3ccccc3cc2O)cc1 [Compound 6c]
Response: 745

Request: Fill in MIC for record CCCOc1ccc(NC(=O)c2cc3ccccc3cc2O)cc1 [Compound 5c]
Response: 778

Request: Fill in MIC for record CCCOc1ccccc1NC(=O)c1cc2ccccc2cc1O [Compound 5a]
Response: 778

Request: Fill in MIC for record CCOc1ccc(NC(=O)c2cc3ccccc3cc2O)cc1 [Compound 4c]
Response: 813

Request: Fill in MIC for record CCCCOc1cccc(NC(=O)c2cc3ccccc3cc2O)c1 [Compound 6b]
Response: 745

Request: Fill in MIC for record COc1ccc(NC(=O)c2cc3ccccc3cc2O)cc1 [Compound 3c]
Response: 852

Request: Fill in MIC for record CCOc1ccccc1NC(=O)c1cc2ccccc2cc1O [Compound 4a]
Response: 813

* * *

Please go through the items and note down their MIC.
Response body: numeric value in µM, unit text excluded.

Request: // fetch MIC; item: CCOc1ccc(NC(=O)c2cc3ccccc3cc2O)cc1 [Compound 4c] ; system: S. aureus ATCC 29213
Response: 832

Request: // fetch MIC; item: CCOc1ccccc1NC(=O)c1cc2ccccc2cc1O [Compound 4a] ; system: S. aureus ATCC 29213
Response: 832

Request: // fetch MIC; item: CC(C)Oc1ccccc1NC(=O)c1cc2ccccc2cc1O [Compound 7a] ; system: S. aureus ATCC 29213
Response: 796

Request: // fetch MIC; item: CCCOc1ccccc1NC(=O)c1cc2ccccc2cc1O [Compound 5a] ; system: S. aureus ATCC 29213
Response: 12.4

Request: // fetch MIC; item: CCCCOc1ccccc1NC(=O)c1cc2ccccc2cc1O [Compound 6a] ; system: S. aureus ATCC 29213
Response: 763

Request: // fetch MIC; item: COc1cccc(NC(=O)c2cc3ccccc3cc2O)c1 [Compound 3b] ; system: S. aureus ATCC 29213
Response: 873

Request: // fetch MIC; item: CCCOc1ccc(NC(=O)c2cc3ccccc3cc2O)cc1 [Compound 5c] ; system: S. aureus ATCC 29213
Response: 796

Request: // fetch MIC; item: CCC(C)Oc1ccc(NC(=O)c2cc3ccccc3cc2O)cc1 (centres unmarked) [Compound 8c] ; system: S. aureus ATCC 29213
Response: 763

Request: // fetch MIC; item: CC(C)Oc1ccc(NC(=O)c2cc3ccccc3cc2O)cc1 [Compound 7c] ; system: S. aureus ATCC 29213
Response: 796

Request: // fetch MIC; item: COc1ccc(NC(=O)c2cc3ccccc3cc2O)cc1 [Compound 3c] ; system: S. aureus ATCC 29213
Response: 873

Request: // fetch MIC; item: CCOc1cccc(NC(=O)c2cc3ccccc3cc2O)c1 [Compound 4b] ; system: S. aureus ATCC 29213
Response: 832

Request: // fetch MIC; item: CC1(C)S[C@@H]2[C@H](NC(=O)[C@H](N)c3ccccc3)C(=O)N2[C@H]1C(=O)O [APC, ampicillin, reference compound] ; system: S. aureus ATCC 29213
Response: 5.7

Request: // fetch MIC; item: O=C(Nc1ccccc1)c1cc2ccccc2cc1O [Compound 2] ; system: S. aureus ATCC 29213
Response: 972

Request: // fetch MIC; item: CCCOc1cccc(NC(=O)c2cc3ccccc3cc2O)c1 [Compound 5b] ; system: S. aureus ATCC 29213
Response: 796

Request: // fetch MIC; item: CCCCOc1ccc(NC(=O)c2cc3ccccc3cc2O)cc1 [Compound 6c] ; system: S. aureus ATCC 29213
Response: 763

Request: // fetch MIC; item: CCC(C)Oc1ccccc1NC(=O)c1cc2ccccc2cc1O (centres unmarked) [Compound 8a] ; system: S. aureus ATCC 29213
Response: 5.9

Request: // fetch MIC; item: COc1ccccc1NC(=O)c1cc2ccccc2cc1O [Compound 3a] ; system: S. aureus ATCC 29213
Response: 55

Request: // fetch MIC; item: CC(C)Oc1cccc(NC(=O)c2cc3ccccc3cc2O)c1 [Compound 7b] ; system: S. aureus ATCC 29213
Response: 796

Request: // fetch MIC; item: CCC(C)Oc1cccc(NC(=O)c2cc3ccccc3cc2O)c1 (centres unmarked) [Compound 8b] ; system: S. aureus ATCC 29213
Response: 763

Request: // fetch MIC; item: CCCCOc1cccc(NC(=O)c2cc3ccccc3cc2O)c1 [Compound 6b] ; system: S. aureus ATCC 29213
Response: 763

Source: paper PMC6272341
